Measured on: human RXFP1 (Homo sapiens, UniProt Q9HBX9)
Construct: expressed in transfected cells
Sequence (Q9HBX9 whole entry): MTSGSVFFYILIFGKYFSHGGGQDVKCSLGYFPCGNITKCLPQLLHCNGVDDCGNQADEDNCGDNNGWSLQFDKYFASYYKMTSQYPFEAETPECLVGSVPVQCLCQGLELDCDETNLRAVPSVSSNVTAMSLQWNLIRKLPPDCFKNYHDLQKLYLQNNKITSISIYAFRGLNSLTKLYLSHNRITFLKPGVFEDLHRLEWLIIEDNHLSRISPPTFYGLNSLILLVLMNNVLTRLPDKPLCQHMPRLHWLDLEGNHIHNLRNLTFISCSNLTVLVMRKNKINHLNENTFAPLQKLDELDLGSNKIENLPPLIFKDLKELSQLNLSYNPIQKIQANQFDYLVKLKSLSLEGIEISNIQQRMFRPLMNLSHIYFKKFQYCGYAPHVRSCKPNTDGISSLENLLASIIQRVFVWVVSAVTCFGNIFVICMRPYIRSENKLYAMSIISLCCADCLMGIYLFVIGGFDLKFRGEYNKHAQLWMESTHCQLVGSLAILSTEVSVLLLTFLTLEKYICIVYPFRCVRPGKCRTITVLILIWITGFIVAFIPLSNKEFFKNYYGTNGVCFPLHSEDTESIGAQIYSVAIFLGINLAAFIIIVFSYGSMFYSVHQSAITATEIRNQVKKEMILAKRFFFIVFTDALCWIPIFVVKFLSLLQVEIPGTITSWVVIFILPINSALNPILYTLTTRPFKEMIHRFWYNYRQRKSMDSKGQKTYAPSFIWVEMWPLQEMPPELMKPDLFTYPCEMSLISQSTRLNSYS
Assay protocol: RXFP1 cAMP assay (hRXFP1 HEK293 cAMP assay, HTRF)
Type: cell-based
Condition description: HEK293 cells stably expressing human RXFP1, 30 min at room temperature, read-out: cAMP hRXFP1 HEK293 Assay EC50
pEC50: −log10 of the molar value.
Tick Condition met if pEC50 is 7 or greater. Tick Condition not met if pEC50 is less than 7.

Exam item: decide whether the reported pEC50 for COc1cc(F)c(F)cc1C(=O)N[C@@H]1C2CCC(/C2=C/c2ccccn2)[C@@H]1C(=O)Nc1ccc(F)c(C(F)(F)F)c1 (stereo partly drawn) is at least 7.
Condition not met

Exam item: decide whether the reported pEC50 for "COc1ccc(-c2cnn3c2COCC3)cc1C(=O)N[C@H]1[C@@H](C(=O)N[C@H](C)C2(C)CC2)[C@H]2CC[C@@H]1/C2=C\C1CC1" is at least 7.
Condition met

Exam item: decide whether the reported pEC50 for COc1ccc(-c2cc(C(OC(C)=O)C(=O)O)ccc2F)cc1C(=O)N[C@@H]1C2CCC(/C2=C/c2cnoc2)[C@@H]1C(=O)Nc1ccc(F)c(C(F)(F)F)c1 (stereo partly drawn) is at least 7.
Condition met

Exam item: decide whether the reported pEC50 for COc1ccc(-c2cc(C(F)F)ccc2F)cc1C(=O)N[C@@H]1C2CCC(/C2=C/C2CC2)[C@@H]1C(=O)Nc1ccc(F)c(C(F)(F)F)c1 (stereo partly drawn) is at least 7.
Condition met

Exam item: decide whether the reported pEC50 for COc1ccc(C2=NOC(C(C)O)C2)cc1C(=O)N[C@H]1[C@@H](C(=O)Nc2ccc(F)c(C(F)(F)F)c2)[C@H]2CC[C@@H]1/C2=C\C1CC1 (single isomer, unassigned) [compound 509] is at least 7.
Condition met

Exam item: decide whether the reported pEC50 for COc1ccc(-c2cc(C3=NOC4CC(O)CC34)ccc2F)cc1C(=O)N[C@H]1[C@@H](C(=O)Nc2ccc(F)c(C(F)(F)F)c2)[C@H]2CC[C@@H]1/C2=C\C1CC1 (stereo partly drawn) [compound 909] is at least 7.
Condition met

Exam item: decide whether the reported pEC50 for COc1ccc(C2=NOC3CC(O)(C(F)(F)F)CC23)cc1C(=O)N[C@H]1[C@@H](C(=O)Nc2ccc(F)c(C(F)(F)F)c2)[C@H]2CC[C@@H]1/C2=C\C1CC1 (stereo partly drawn) is at least 7.
Condition met

Exam item: decide whether the reported pEC50 for COc1ccc(-c2cc(C(NC(=O)CC3CCOCC3)C(=O)O)ccc2F)cc1C(=O)N[C@@H]1C2CCC(/C2=C/C(F)(F)F)[C@@H]1C(=O)Nc1ccc(F)c(C(F)(F)F)c1 (stereo partly drawn) is at least 7.
Condition met

Exam item: decide whether the reported pEC50 for "COc1ccc(N2C[C@H](O)CC2=O)cc1C(=O)N[C@H]1[C@@H](C(=O)Nc2ccc(F)c(C(F)(F)F)c2)[C@H]2CC[C@@H]1/C2=C\C1CC1" is at least 7.
Condition not met

Exam item: decide whether the reported pEC50 for COCCCOc1c(F)cc(C2=NOC3COCC23)cc1C(=O)N[C@H]1[C@@H](C(=O)Nc2ccc(F)c(C(F)(F)F)c2)[C@H]2CC[C@@H]1/C2=C\C1CC1 (stereo partly drawn) is at least 7.
Condition met

Exam item: decide whether the reported pEC50 for COc1ccc(-c2cc(C(COC(=O)NC3CCC3)C(F)(F)F)ccc2F)cc1C(=O)N[C@H]1[C@@H](C(=O)Nc2ccc(F)c(C(F)(F)F)c2)[C@H]2CC[C@@H]1/C2=C\C1CC1 (stereo partly drawn) [compound 879] is at least 7.
Condition met

Exam item: decide whether the reported pEC50 for COc1ccc(C2=NOC(COCCO)C2)cc1C(=O)N[C@H]1[C@@H](C(=O)Nc2ccc(F)c(C(F)(F)F)c2)[C@H]2CC[C@@H]1/C2=C\C1CC1 (stereo partly drawn) is at least 7.
Condition met

Exam item: decide whether the reported pEC50 for COc1ccc(-c2cc(C(COC(=O)NC3CCC3)C(F)(F)F)ccc2F)cc1C(=O)N[C@H]1[C@@H](C(=O)Nc2ccc(F)c(C(F)(F)F)c2)[C@H]2CC[C@@H]1/C2=C\C1CC1 (stereo partly drawn) [compound 878] is at least 7.
Condition met

Exam item: decide whether the reported pEC50 for COc1ccc(C2=NOC3CC(CO)CC23)cc1C(=O)N[C@@H]1C2CCC(/C2=C/C2CC2)[C@@H]1C(=O)Nc1ccc(F)c(OC(F)(F)F)c1 (stereo partly drawn) is at least 7.
Condition met

Exam item: decide whether the reported pEC50 for COc1ccc(-c2cc(C(=O)O)ccc2F)cc1C(=O)N[C@@H]1C2CCC(/C2=C/C2CC2)[C@@H]1C(=O)NC1CC(F)(F)C1 (stereo partly drawn) is at least 7.
Condition not met

Exam item: decide whether the reported pEC50 for COc1ccc(-c2cc(C(=O)O)ccc2F)cc1C(=O)N[C@@H]1C2CCC(/C2=C/c2cn(C)nn2)[C@@H]1C(=O)Nc1ccc(F)c(C(F)(F)F)c1 (stereo partly drawn) is at least 7.
Condition not met
